Hey, just so you know, these numbers are from ChEMBL document CHEMBL1124454.

method-description: physchem
condition: octanol/water
Description: Partition coefficient (logP)
logP values for the compounds below.

Known results for compounds:
{"compound": "CCCc1c(O)ccc2c1CCO2", "logP": 3.4}
{"compound": "Oc1cc2c(cc1CCCSCc1cccnc1)OCC2", "logP": 3.3}
{"compound": "OCCc1ccc(OCCCc2cc3c(cc2O)CCO3)cc1", "logP": 3.5}

CCCc1cc2c(cc1O)CCO2 yielded logP of 3.4

COC(=O)c1ccccc1OCCCOc1cc2c(cc1O)CCO2 yielded logP of 3.4

OCCCc1c(O)ccc2c1CCO2 yielded logP of 1.4

Oc1cc2c(cc1Sc1ccccn1)OCC2 yielded logP of 2.8

Oc1ccc2c(c1CCCSc1ccccc1)CCO2 yielded logP of 4.9

CCCOc1cc2c(cc1O)CCO2 yielded logP of 2.6

Oc1cc2c(cc1CCCNc1ccccc1)OCC2 yielded logP of 3.8

Oc1cc2c(cc1CCCOc1ccccc1)OCC2 yielded logP of 4.3

----------
logP values for the compounds below.
method-description: physchem
condition: octanol/water
Number only, no unit.

Known results for compounds:
{"compound": "C=CCc1cc2c(cc1O)CCO2", "logP": 2.9}
{"compound": "Oc1cc2c(cc1CCCOc1ccc(F)cc1)OCC2", "logP": 4.5}

Oc1ccc2c(c1CCCNc1ccccc1)CCO2 yielded logP of 3.8

COC(=O)c1cccc(OCCCOc2cc3c(cc2O)CCO3)c1 yielded logP of 3.7

----------
method-description: physchem
condition: octanol/water
measurement-type: logP
Number only, no unit.

Known results for compounds:
{"compound": "Oc1ccc2c(c1CCCSCc1cccnc1)CCO2", "logP": 3.3}
{"compound": "Oc1cc2c(cc1Sc1ccccc1)OCC2", "logP": 4.1}
{"compound": "COCCOc1cc2c(cc1O)CCO2", "logP": 1.3}
{"compound": "Cc1c(O)c(CCCSc2ccccc2)cc2c1CCO2", "logP": 5.9}
{"compound": "Oc1cc2c(cc1OCCCc1ccccc1)OCC2", "logP": 4.2}

CCCCOc1cc2c(cc1O)CCO2 yielded logP of 3.1

Oc1cc2c(cc1SCCc1ccccc1)OCC2 yielded logP of 4.4

Oc1cc2c(cc1CCCOc1ccc(Cl)cc1)OCC2 yielded logP of 5.1

----------
logP values for the compounds below.
method-description: physchem
condition: octanol/water

Known results for compounds:
{"compound": "Oc1cc2c(cc1SCCCc1ccccc1)OCC2", "logP": 4.9}
{"compound": "CCCc1cc2c(c(C)c1O)CCO2", "logP": 4.1}

Now for another entry.
Oc1cc2c(cc1OCCCOc1ccccc1)OCC2 yielded logP of 3.4

----------
method-description: physchem
condition: octanol/water
measurement-type: logP
Number only, no unit.

Known results for molecules:
{"compound": "OCCc1cccc(OCCCc2cc3c(cc2O)CCO3)c1", "reported-measurement": 3.5}
{"compound": "CC(C)c1cc2c(cc1O)CCO2", "reported-measurement": 3.3}
{"compound": "Oc1cc2c(cc1CCCSc1ccccc1)OCC2", "reported-measurement": 4.9}
{"compound": "C=CCc1c(O)ccc2c1CCO2", "reported-measurement": 2.9}
{"compound": "Oc1ccc2c(c1)CCO2", "reported-measurement": 1.7}

CC(C)(C)c1cc2c(cc1O)CCO2 yielded logP of 3.7

COC(=O)Cc1ccc(OCCCOc2cc3c(cc2O)CCO3)cc1 yielded logP of 3.1

COC(=O)c1ccc(OCCCOc2cc3c(cc2O)CCO3)cc1 yielded logP of 3.7

Oc1cc2c(cc1Cc1ccccc1)OCC2 yielded logP of 3.9

N#CCCCc1cc2c(cc1O)CCO2 yielded logP of 1.8

Oc1ccc2c(c1CCCOc1ccccc1)CCO2 yielded logP of 4.3

CC(C)(C)c1c(O)ccc2c1CCO2 yielded logP of 3.7

Oc1cc2c(cc1Sc1ccncc1)OCC2 yielded logP of 2.8

OCCCc1cc2c(cc1O)CCO2 yielded logP of 1.4

C=CCc1cc2c(c(C)c1O)CCO2 yielded logP of 3.5

CCCc1cc2c(c(C(C)(C)C)c1O)CCO2 yielded logP of 5.4
